# maximum BCKDK inhibition in the biochemical assay listing for each entry below
tested-system: human BCKDK (Homo sapiens)
test-description: BCKDK biochemical assay
condition-set: plateau of inhibition curve
Kindly provide the numeric value in % only, without the unit symbol.

Worked examples, 2 compounds total:
compound	endpoint-value
CCC1CN(Cc2ccc(-c3ccccc3-c3nnn[nH]3)cc2)c2ncccc2O1 (stereo not shown)	100
CCCCC(=O)N(Cc1ccc(-c2ccccc2-c2nnn[nH]2)cc1)[C@H](C(=O)O)C(C)C	100

Now, please, on to the next compound.
Reported maximum BCKDK inhibition in the biochemical assay of C[C@@H]1C[C@H]2O[C@@H]2/C=C\C=C\C(=O)Cc2c(Cl)c(O)cc(O)c2C(=O)O1 : 100

====

tested-system: UniProt O14874
test-description: BCKDK biochemical assay
condition-set: read-out: In vitro IC50; Supplementary Table 1, BDK inhibition
measured-quantity: pIC50
On this scale, pIC50 is minus log10 of a concentration expressed in M (mol/L).

Reported pIC50 of CCCc1nc(C(C)(C)O)c(C(=O)O)n1Cc1ccc(-c2ccccc2-c2nnn[nH]2)cc1 : 4.36

====

tested-system: human BCKDK (Homo sapiens)
measured-quantity: pKd
On this scale, pKd is minus log10 of a concentration expressed in M (mol/L).

Reported pKd of C[C@@H]1C[C@H]2O[C@@H]2/C=C\C=C\C(=O)Cc2c(Cl)c(O)cc(O)c2C(=O)O1 : 5.83

====

tested-system: human BCKDK (Homo sapiens, UniProt O14874)
test-description: BCKDK biochemical assay
condition-set: Biochemical IC50 at 200 μM ATP, 200 μM ATP
measured-quantity: IC50
Give your result as the value with the unit written after it.

Worked examples, 2 compounds total:
compound	endpoint-value
CCCCC(=O)N(Cc1ccc(-c2ccccc2-c2nnn[nH]2)cc1)[C@H](C(=O)O)C(C)C	7.7 µM
C[C@@H]1C[C@H]2O[C@@H]2/C=C\C=C\C(=O)Cc2c(Cl)c(O)cc(O)c2C(=O)O1	110 µM

Reported IC50 of CCC1CN(Cc2ccc(-c3ccccc3-c3nnn[nH]3)cc2)c2ncccc2O1 (stereo not drawn) : 0.021 µM

Reported IC50 of COc1ccc(-c2nnn[nH]2)cc1 : 232 µM

Reported IC50 of O=C(O)c1sc2cc(Cl)ccc2c1Cl : 0.9 µM

Reported IC50 of Cc1ccc(-c2ccccc2-c2nnn[nH]2)cc1 : 38.7 µM

====

tested-system: human BCKDK (Homo sapiens)
test-description: BCKDK biochemical assay
condition-set: Biochemical IC50, ATP concentration of 15 μM
pIC50: −log10 of the molar value.
Please use Criterion met whenever pIC50 is not below 5, and Criterion not met whenever it is.

Solved cases (5 shown):
compound	group
CCCCC(=O)N(Cc1ccc(-c2ccccc2-c2nnn[nH]2)cc1)[C@H](C(=O)O)C(C)C	Criterion met
Cc1ccc(-c2ccccc2-c2nnn[nH]2)cc1	Criterion not met
COc1ccc(-c2nnn[nH]2)cc1	Criterion not met
C[C@@H]1C[C@H]2O[C@@H]2/C=C\C=C\C(=O)Cc2c(Cl)c(O)cc(O)c2C(=O)O1	Criterion not met
CCC1CN(Cc2ccc(-c3ccccc3-c3nnn[nH]3)cc2)c2ncccc2O1 (stereo not drawn)	Criterion met

// switching to the query compound
Quick check, pIC50 >= 5? O=C(O)c1sc2cc(Cl)ccc2c1Cl
Criterion met
